- TESTED_SYSTEM: UniProt Q92570
- Sequence (Q92570 whole entry): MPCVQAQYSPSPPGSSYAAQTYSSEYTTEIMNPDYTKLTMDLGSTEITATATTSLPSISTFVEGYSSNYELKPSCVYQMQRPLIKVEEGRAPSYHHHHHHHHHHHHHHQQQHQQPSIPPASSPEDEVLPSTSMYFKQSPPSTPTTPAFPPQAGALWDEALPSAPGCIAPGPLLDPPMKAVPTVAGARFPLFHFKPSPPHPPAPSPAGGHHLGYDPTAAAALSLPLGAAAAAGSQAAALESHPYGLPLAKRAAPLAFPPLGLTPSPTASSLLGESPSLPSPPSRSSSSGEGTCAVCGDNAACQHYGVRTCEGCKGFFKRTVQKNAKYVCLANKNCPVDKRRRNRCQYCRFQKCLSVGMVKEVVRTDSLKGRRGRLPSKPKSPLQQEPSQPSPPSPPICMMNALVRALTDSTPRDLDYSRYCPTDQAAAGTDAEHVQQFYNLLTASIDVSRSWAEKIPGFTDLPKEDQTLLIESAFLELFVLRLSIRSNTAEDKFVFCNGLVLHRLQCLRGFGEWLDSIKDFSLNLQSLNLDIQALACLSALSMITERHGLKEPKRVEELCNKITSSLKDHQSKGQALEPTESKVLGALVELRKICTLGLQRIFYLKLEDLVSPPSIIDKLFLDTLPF
VALUE_KIND: EC50 (nM)
Express it in nM; write the number only.

Data request: Fill blank: measured EC50 of the molecule COc1cccc(-c2ccc(NC(=O)C3=C(C(=O)O)CCC3)c(F)c2)c1 [VIDOFLUDIMUS] is ____.
Data returned: 2900

----------
- TESTED_SYSTEM: Retinoic acid receptor alpha (Homo sapiens, UniProt P10276)
- Sequence (P10276 whole entry): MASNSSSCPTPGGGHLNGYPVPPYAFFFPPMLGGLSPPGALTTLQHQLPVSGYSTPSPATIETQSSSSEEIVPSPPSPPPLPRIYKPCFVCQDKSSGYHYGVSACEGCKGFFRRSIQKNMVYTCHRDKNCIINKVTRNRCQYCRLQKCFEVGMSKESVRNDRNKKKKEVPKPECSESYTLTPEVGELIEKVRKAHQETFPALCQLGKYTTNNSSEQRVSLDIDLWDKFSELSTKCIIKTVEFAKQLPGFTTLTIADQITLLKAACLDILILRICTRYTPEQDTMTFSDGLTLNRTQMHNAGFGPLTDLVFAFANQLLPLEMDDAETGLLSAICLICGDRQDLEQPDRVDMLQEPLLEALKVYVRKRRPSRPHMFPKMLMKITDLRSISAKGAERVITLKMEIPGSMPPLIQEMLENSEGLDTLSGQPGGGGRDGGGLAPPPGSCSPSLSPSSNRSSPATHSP
VALUE_KIND: EC50

Data request: Fill blank: measured EC50 of the compound `COc1cccc(-c2ccc(NC(=O)C3=C(C(=O)O)CCC3)c(F)c2)c1` is ____.
Data returned: > 10 µM

This collection of values is drawn from ChEMBL document CHEMBL5380872.
